- protocol: NCI Yeast Anticancer Drug Screen. Data for the mlh1 rad18 strain (AID 175)
- conditionDescription: S. cerevisiae mlh1 rad18 strain growth inhibition; at 50.0 µM; stronger effect = higher value
About 79,000 compounds went through this panel and 15% of them were active in at least one assay; those are over-represented in the sample as a whole.
measurementName: growth inhibition (%)
Kindly provide the numeric value in % only, without the unit symbol.

// worked examples, growth inhibition included
| molecule | measurementUnit | growth inhibition |
| --- | --- | --- |
| O=C(COc1ccccc1)Nc1ccc(C(=O)O)cc1 | % | 25.3 |
| COc1ccc(/C=C2/C(=O)N=C(NC(C)=O)N2C)cc1OC | % | 4.55 |
| CCCCCC(CN(C)C)C(O)CCc1ccc(Cl)c(Cl)c1 (stereo unspecified) | % | 98.6 |
| COC1(OC)C2(Cl)C(Cl)=C(Cl)C1(Cl)C1CCCCC12 (stereo unspecified) | % | 2.3 |
| N#Cc1c(-c2ccccc2)cc(-c2ccc(N)cc2)[nH]c1=O | % | 20.3 |

Please turn your attention to the following entry.
Task item: Read the entry `CCOc1ccc(OCC)c(C(=O)CCC(=O)Nc2ccc(Br)cc2)c1` and write its reported growth inhibition.
Reply: -6.75

====

Listed here are molecules together with their documented growth inhibition.
- protocol: NCI Yeast Anticancer Drug Screen. Data for the bub3 strain (AID 167)
- conditionDescription: S. cerevisiae bub3 mutant strain, at 50.0 µM, stronger effect = higher value
Compounds without any hit were thinned out: in the full panel of roughly 79,000, 15% have a hit.
Kindly provide the numeric value in % only, without the unit symbol.

Task item: Read the entry CC(C)C1CCC(O)CC1 (stereo not drawn) and write its reported growth inhibition.
Reply: 10.3

Task item: Read the entry `OCCCN1CCN(CCO)CC1` and write its reported growth inhibition.
Reply: 4.25

Task item: Read the entry CCOC(=O)C1CCCCC1NC1CCCCC1C(=O)OCC (stereo not drawn) and write its reported growth inhibition.
Reply: -16.2

====

- protocol: NCI Yeast Anticancer Drug Screen. Data for the mec2-1 strain (AID 157)
- conditionDescription: S. cerevisiae mec2-1 strain, at 50.0 µM, stronger effect = higher value
This is part of a sample that, as a whole, favours compounds with a hit. Of some 79,000 tested, about 15% had one in any assay.
Listed here are compounds together with their documented growth inhibition.
Kindly provide the numeric value in % only, without the unit symbol.

| compound | measurementUnit | observedMeasurement |
| --- | --- | --- |
| Cc1c(C(=O)O)c(-c2ccc([N+](=O)[O-])cc2)c(C=O)n1-c1ccccc1 | % | 10.9 |

Please turn your attention to the following entry.
Task item: Read the entry `[N-]=[N+]=Nc1ccccc1C(=O)NC(=O)Nc1ccccc1` and write its reported growth inhibition.
Reply: 1.95

====

Listed here are compounds together with their documented growth inhibition.
- protocol: NCI Yeast Anticancer Drug Screen. Data for the sgs1 mgt1 strain (AID 161);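 note: 0% = growth of cultures given vehicle only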
- conditionDescription: S. cerevisiae sgs1 mgt1 strain, at 50.0 µM, stronger effect = higher value
About 79,000 compounds went through this panel and 15% of them were active in at least one assay; those are over-represented in the sample as a whole.
Kindly provide the numeric value in % only, without the unit symbol.

Task item: Read the entry O=C(Nc1ccc(F)cc1)C(=O)C(C(=O)c1ccccc1F)C1OC(=O)c2ccccc21 (stereo unspecified) and write its reported growth inhibition.
Reply: -10.6

Task item: Read the entry `CCCCNC(=O)c1c(Cl)c(Cl)c(Cl)c(Cl)c1C(=O)O` and write its reported growth inhibition.
Reply: 4.85

Task item: Read the entry `CNC(=O)OCc1nc(SC)n(Cc2ccccc2)c1COC(=O)NC` and write its reported growth inhibition.
Reply: 11.2

Task item: Read the entry `CC(C)(O)CC(C)(c1ccccc1)c1ccccc1` and write its reported growth inhibition.
Reply: -1.25

Task item: Read the entry CN1N=Nc2ccccc2C1(O)c1ccccc1 (stereo unspecified) and write its reported growth inhibition.
Reply: 0.25

Task item: Read the entry `O=C(O)/C=C/C(=O)Nc1ccc(C(=O)O)cc1` and write its reported growth inhibition.
Reply: 10.2

Task item: Read the entry `Cc1nc(C)c(C(=O)NNC(=O)C[n+]2ccccc2)cc1C(=O)NNC(=O)C[n+]1ccccc1` and write its reported growth inhibition.
Reply: -11.4

Task item: Read the entry `Cc1ccc(S(=O)(=O)NCNS(=O)(=O)c2ccc(C)cc2)cc1` and write its reported growth inhibition.
Reply: 2.05

Task item: Read the entry `O=CNc1cc([N+](=O)[O-])ccc1OCc1ccccc1` and write its reported growth inhibition.
Reply: -0.75

Task item: Read the entry C=C1C(=O)OC2C1C(OC(=O)/C(C)=C/C)CC1(C)C(=O)CCC(=C)C21 (stereo unspecified) and write its reported growth inhibition.
Reply: 52.8

Task item: Read the entry `S=C=Nc1ccc(CSc2nc3ccccc3[nH]2)cc1` and write its reported growth inhibition.
Reply: 12.8
